- System: A549
- experiment: NCI tumour cell line growth inhibition, 48 h
Calls of active or inactive are those of the source. Rule as the data show it: active = GI50 up to about 1.1 µM and inactive = higher.
Classes used: 1.0 for active, 0.0 for inactive

compound | system tested | class name
COc1ccc2c(ccc3c(COC(=O)NC(C)C)c(COC(=O)NC(C)C)n(C)c32)c1 | A549 | 0.0
[N-]=[N+]=Nc1c(C=O)c(=O)n2c3c(cccc13)CCC2 | A549 | 0.0
C=C1CC(Cn2ccc(=O)[nH]c2=O)(c2ccc(Cl)cc2)OC1=O (stereo not given) | A549 | 0.0
COC(=O)C1=C(C)NC2(O)C=CC(=O)C3C(=O)N(c4ccccc4)C(=O)C132 (stereo not given) | A549 | 0.0
CCO/C=C1\N=C(C(Cl)c2ccccc2)OC1=O (stereo not given) | A549 | 0.0
CC1=C/C(=N\N(C)C)C(C(O)(C(F)(F)F)C(F)(F)F)C(C)(C)C1 (stereo not given) | A549 | 0.0
CC(C)C(Sc1nc(N)nc2nc[nH]c12)C(=O)O (stereo not given) | A549 | 0.0
COc1cc2c(c(OC)c1OC)C(=O)[C@@H]1[C@H]2N1C(=O)NCCCl | A549 | 0.0
O=C(NC/C(Cl)=C/Cl)Nc1c2ccccc2nc2ccccc12 | A549 | 0.0
CCOC(=O)c1ccc(N[C@@H]2c3cc4c(cc3C(c3cc(OC)c(O)c(OC)c3)[C@H]3C(=O)OCC32)OCO4)cc1 (stereo not given in full) | A549 | 1.0

====

compounds and their reported GI50
- Tested on: NCI-H23
- experiment: NCI tumour cell line growth inhibition, 48 h
The source made the active and inactive calls. Cut-off read from the data, not from the text of the source: active = GI50 up to about 1.1 µM and inactive = higher.

compound | GI50
CCC1(CC)C(=O)N(C(=O)c2cc(OC)c(OC)c(OC)c2)N(C(=O)c2cc(OC)c(OC)c(OC)c2)C1=O | > 50 µM (inactive)
O=C(CC1(O)C(=O)Nc2ccccc21)c1ccccc1O (stereo not given) | > 100 µM (inactive)
O=C(O)c1cc2ccccc2c(/N=N/c2ccccc2)c1O | 16.7 µM (inactive)
CCCCc1c2c(nc3c1CCc1cc4cc5c(nc4nc1-3)-c1nc3c(c(CCCC)c1CC5)CCCC3)CCCC2 | 49.5 µM (inactive)
O=C(O)CN(CCNC(=O)OCC1c2ccccc2-c2ccccc21)CCNC(=O)OCC1c2ccccc2-c2ccccc21 | 24.8 µM (inactive)
C=C(CN(C)C)C(=O)c1ccc(C(=O)C(=C)CN(C)C)cc1 | > 100 µM (inactive)
CNC(=O)C1CCCN1C(=O)C(Cc1c[nH]cn1)NC(=O)C1CCC(=O)N1 (stereo not given) | > 100 µM (inactive)
CCOC(=O)c1c(N2CCCC2)[nH]c(=O)c(C(c2ccc(Cl)c([N+](=O)[O-])c2)c2c(O)c(C(=O)OCC)c(N3CCCC3)[nH]c2=O)c1O | 22 µM (inactive)
Cc1cn(C2CC(n3cncn3)C(C(C)O)O2)c(=O)[nH]c1=O (stereo not given) | > 100 µM (inactive)
Clc1ccccc1-c1nnc2c(-c3ccccc3)nc3ccccc3n12 | > 100 µM (inactive)
c1ccc2c(c1)cc1c3[nH]c4ccccc4c3ccn21 | > 10 µM (inactive)
CCOC(=O)CCC(C(=O)OCC)n1nnc2ccc(Nc3c(C)[n+]([O-])c4cc(Cl)ccc4[n+]3[O-])cc21 (stereo not given) | 24.8 µM (inactive)
C=C1CC(Cn2ccc(=O)[nH]c2=O)(c2ccc(Cl)cc2)OC1=O (stereo not given) | 5.48 µM (inactive)
O=C1C(c2c(O)[nH]c3ccc(S(=O)(=O)O)cc23)=Nc2ccccc21 | > 100 µM (inactive)
COc1cc2c(oc(=O)c3c4occc4cc(OC)c23)c2cccc(O)c12 | > 100 µM (inactive)
CC(=O)O[C@H]1C[C@]2(O)[C@@H]3CC[C@@H]4C[C@@H](O)CC[C@]4(C)[C@H]3CC[C@]2(C)[C@H]1C1=CC(=O)OC1 | 0.0366 µM (active)
CC(=O)N(C(C)=O)n1c(-c2ccccc2)n[nH]c1=O | > 100 µM (inactive)
Cc1ccc(/N=N/C(=N/NC(=O)c2cc(Cl)ccc2O)c2ccc(N(CCC#N)CCC#N)cc2C)cc1 | 18.6 µM (inactive)
COc1cc(CCCl)c(CC2=NCCc3cc(OC)c(OC)cc32)cc1OC | > 100 µM (inactive)
CC(=O)c1cc2c(s1)C(=O)c1sccc1C2=O | 0.0184 µM (active)
CCCCCC(CO)C(O)(C(F)(F)F)C(F)(F)F (stereo not given) | > 10 µM (inactive)
CC(O)(C(=O)N(O)c1ccc(Cl)cc1)c1ccc(Cl)cc1 (stereo not given) | 23.4 µM (inactive)
CN(CCNCc1cn(C)c2c1ccc1ccccc12)CCNCc1cn(C)c2c1ccc1ccccc12 | 1.64 µM (inactive)
O=C1c2ccccc2/C=C\C(c2ccccc2)=N/N1c1ccccc1Cl | 28.8 µM (inactive)
C[C@]12CC/C(=N\OC(=O)Nc3ccccc3)C=C1CC[C@@H]1C2CC[C@@]2(C)C1CC[C@@H]2OC(=O)Nc1ccccc1 (stereo not given in full) | 73.3 µM (inactive)
CCOC(=O)C1C(c2ccc(Cl)cc2Cl)NC(c2ccc(C)cc2)C(C(=O)OC)S1(=O)=O (stereo not given) | 66.8 µM (inactive)
O=C1c2c(Br)sc(Br)c2[C@@H](NC(=O)C(F)(F)F)C1Br (stereo not given in full) | 2.53 µM (inactive)
c1cc2c(cc1[C@@H]1OC[C@@H]3[C@H]1CO[C@H]3c1ccc3c(c1)OCO3)OCO2 | 65.9 µM (inactive)
O=C1C=CC(O)C2C1CC13SSC4(CC5C(=O)C=CC(O)C5N4C1=O)C(=O)N23 (stereo not given) | 0.106 µM (active)
CC(C)[Si](OC1=C(C(=O)Nc2ccccc2Cl)CCCCC1)(C(C)C)C(C)C | > 100 µM (inactive)
[N-]=[N+]=NC1=C(N=[N+]=[N-])c2cccc3cccc(c23)C1=O | > 100 µM (inactive)
O=C(Cc1ccccc1)NN1C(=O)C(Cl)C1c1cccc([N+](=O)[O-])c1 (stereo not given) | 26.4 µM (inactive)
C[C@@]12CCCC(=O)N1[C@@H](CO)C(c1ccccc1)O2 (stereo not given in full) | > 100 µM (inactive)
COc1ccc(C2OC(=O)c3c2ccc2ccccc32)c(C)c1 (stereo not given) | 5.41 µM (inactive)
COc1cccc(-c2cc(O)c3cc(C)cnc3n2)c1 | 0.203 µM (active)
O=[N+]([O-])/C(Cl)=C/C(=C1/Nc2ccccc2O1)[N+](=O)[O-] | 17.8 µM (inactive)
Cn1c(=O)c2c(nc3n2CCC(=O)N3CCCCl)n(C)c1=O | > 100 µM (inactive)
CCCCCCCCCCCCc1ccc(S(=O)(=O)O)cc1 | > 100 µM (inactive)
CC1(C)OC(=S)N(c2ccccc2)C12C=Cc1cc3ccccc3nc1S2 (stereo not given) | 29.6 µM (inactive)
CC(C)N(C(=O)C12C3C4C1C1C2C3C41C(=O)C(C)(C)C)C(C)C (stereo not given) | > 100 µM (inactive)
